Values compiled from patent US20250099420A1.

Overview of reported GPR139 Antagonist Activity Ligand Efficiency across a group of molecules:
# tested target: GPR139 (Homo sapiens, UniProt Q6DWJ6)
# Sequence (Q6DWJ6 1-353): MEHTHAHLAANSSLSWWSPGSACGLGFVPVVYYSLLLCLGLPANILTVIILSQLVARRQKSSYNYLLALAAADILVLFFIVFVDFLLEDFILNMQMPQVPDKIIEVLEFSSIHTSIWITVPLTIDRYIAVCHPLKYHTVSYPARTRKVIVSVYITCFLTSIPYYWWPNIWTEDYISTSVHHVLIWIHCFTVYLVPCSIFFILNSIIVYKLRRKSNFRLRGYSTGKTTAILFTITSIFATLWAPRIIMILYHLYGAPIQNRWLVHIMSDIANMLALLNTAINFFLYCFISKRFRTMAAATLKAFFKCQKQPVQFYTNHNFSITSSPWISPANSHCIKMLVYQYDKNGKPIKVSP
# assay: GPR139 Antagonist titration assay (calcium detection, HEK-GPR139 cells, vs EC80 of S-JNJ-63533054)
Give a plain numeric answer without units written out.

Use these answered entries as a reference point.
{"columns": ["molecule", "result"],
 "data": [
  ["O=C(CSc1nc(-c2ccccc2)cn1-c1ccc(F)cc1)Nc1ccccc1 [SR-01000555413]", 0.26],
  ["Cc1ccc(-n2cc(-c3ccccc3)nc2OCC(=O)Nc2ccccc2C)cc1 [SR-01000555462]", 0.25],
  ["Cc1ccc(-n2cc(-c3ccccc3)nc2SCC(=O)Nc2cccc(C)c2C)cc1 [SR-01000555460]", 0.24]
]}

// query GPR139 Antagonist Activity Ligand Efficiency value for entry CCc1ccccc1NC(=O)CSc1nnc(-c2ccccc2)c(-c2ccccc2)n1 [SR-01000581835] 0.23

* * *

Listed next: entries and their corresponding Hill Slope.
# tested target: GPR139 (Homo sapiens)
# assay: GPR139 Agonist titration / agonist counterscreen assay (calcium detection, HEK-GPR139 cells)
# Type: cell-based
# Set-up: expressed in transfected cells; host or cells: HEK Aequorin cells, Maxcyte transient transfection
# measurement setup: GPR139 Agonist Activity
Kindly provide the number alone.

{"columns": ["compound", "Hill Slope"],
 "data": [
  ["COc1cc(-c2noc(CCC(=O)Nc3cccc(C)c3C)n2)cc(OC)c1OC", 1.12],
  ["COC(=O)c1ccc(CNC(=O)Nc2ccc(-c3cn[nH]c3)cc2)cc1.O=C(O)C(F)(F)F", 1.14],
  ["COc1ccc(NC(=O)NC(O)(O)c2cccc(C(C)=O)c2)cc1", 0.88]
]}

Field request: Hill Slope | item: Cc1cc(Br)ccc1OCC(=O)NNC(=O)c1ccccc1C 0.97

* * *

# tested target: UniProtKB Q6DWJ6
readout type: GPR139 Antagonist Activity Lipophilic Efficiency (logP)
Reply with just the number.

Solved cases below.
{"columns": ["molecule", "tested target", "result"],
 "data": [
  ["Cc1cccc(-n2cc(-c3ccccc3)nc2SCC(=O)Nc2ccccc2C)c1 [SR-01000555475]", "UniProtKB Q6DWJ6", "−768.8E−3"],
  ["COc1ccc(-n2cc(-c3ccccc3)nc2SCC(=O)Nc2ccccc2C)cc1 [SR-01000555409]", "UniProtKB Q6DWJ6", "−708.9E−3"]
]}

# next molecule below
Requested read-out: GPR139 Antagonist Activity Lipophilic Efficiency (logP). Entry: COc1ccccc1-n1cc(-c2ccccc2)nc1SCC(=O)Nc1cccc(C)c1C [SR-01000555431] −548.6E−3

* * *

# Tested on: parental HEK cells
# assay: HEK parental Agonist Counterscreen Assay (non-transfected cells)
# Format: cell-based
# measurement setup: HEK Agonist Activity section
Listing of entries alongside the reported Lipophilic Efficiency (logP).
// return just the number, without any unit appended

Here are 4 compounds together with their reported answers.
{"columns": ["compound", "result"],
 "data": [
  ["Nc1ccc(C(=O)OCC(=O)NC2CCCc3ccccc32)cc1[N+](=O)[O-] (stereo not drawn)", 1.47],
  ["Cc1nn(-c2ccccc2)nc1C(=O)NNC(=O)CSCc1cccc2ccccc12", 1.65],
  ["Cc1ccc(CCNC(=O)CN2CCN(Cc3ccccc3Cl)C2=O)cc1", 1.74],
  ["O=C(CC1C(=O)N(c2ccccc2)C(=O)N1Cc1ccc2c(c1)OCO2)Nc1ccc(Cl)cc1 (stereo not drawn)", 0.07]
]}

Given CN(C)c1ccc(NC(=O)Cn2cc(C=O)c3ccccc32)cc1 , state its recorded Lipophilic Efficiency (logP). 1.82

* * *

# tested target: GPR139 (Homo sapiens)
# assay: GPR139 Agonist titration / agonist counterscreen assay (calcium detection, HEK-GPR139 cells)
# Format: cell-based
# Parameters: expressed in transfected cells; host or cells: HEK Aequorin cells, Maxcyte transient transfection
# measurement setup: GPR139 Agonist Activity; ligand efficiency
readout type: Efficiency Ligand
Respond using a number only.

See these solved cases before continuing.
{"columns": ["molecule", "result"],
 "data": [
  ["Cc1ccc(C2(C)NC(=O)N(CC(=O)NCC(C)C)C2=O)cc1 (stereo not drawn) [SR-01000048367]", 0.45],
  ["COc1ccc(CCCC(=O)c2cccc(-c3ccc(OC)cc3)c2)cc1 [SR-01000655128]", 0.36],
  ["CCn1c(=O)c([N+](=O)[O-])c(NCCc2ccc(OC)cc2)c2ccccc21 [SR-01000918303]", 0.35],
  ["CC(C)C(CC(=O)Cc1cccc2ccccc12)C(=O)Nc1cccc(C#N)c1 (stereo not drawn) [SR-05000022531]", 0.37],
  ["COc1cccc(C(=O)NNC(=O)COc2ccc(C)cc2Br)c1 [SR-01000369718]", 0.48],
  ["CC12C=CC3(CN(Cc4ccccc4)C(=O)C3C1C(=O)NCc1ccco1)O2 (stereo not drawn) [SR-01000582958]", 0.33]
]}

# query: Efficiency Ligand of entry CC(C)(C)CN1CCNC(=O)C1CC(=O)NCCc1cnn(-c2ccccc2)c1 (stereo not drawn) [SR-01000177515] 0.37

Try the molecule O=C(NNC(=O)C1CC1c1ccccc1)Nc1cccc(Cl)c1 (stereo not drawn) [SR-01000202338] 0.48

Subsequent entry: CCCCNC(=O)NNC(=O)CSc1cc(C)c(Br)cc1C [SR-01000061818] 0.50

And what about the molecule Cc1ccc(CN2CCN(CC(=O)N3CC(C)CC(C)C3)C2=O)cc1 (stereo not drawn) [SR-01000150389] ? 0.38

And Cc1cc(Cl)ccc1OCC(=O)NNC(=O)C1CC1c1ccccc1 (stereo not drawn) [SR-01000317486] ? 0.44

Now consider O=C(Cn1ncc2c1-c1ccccc1OC2)Nc1ccccn1 [SR-01000135048] and answer again. 0.40

Lookup COc1ccc(C(C)N2CC34C=CC(O3)C(C(=O)OCC(C)C)C4C2=O)cc1 (stereo not drawn) [SR-01000114500] 0.34

Cc1cccc(NC(=S)NNC(=O)CSCc2cccc3ccccc23)c1 [SR-07000002775] , same question. 0.35

Now the same for Cc1cc(C)c(/C=C2/NC(=N)NC2=O)c(C)c1 [SR-01000218376] 0.59

Again, but for Cc1ccc(SCC(=O)Nc2nnc(-c3ccco3)o2)cc1 [SR-01000021414] 0.44

Now the molecule Cc1c(Br)c([N+](=O)[O-])nn1CC(=O)NCCc1ccc(Cl)cc1 [SR-01000298170] 0.46

Follow-up entry: Cc1onc(-c2ccccc2Cl)c1C(=O)NNC(=O)CSc1ccccc1[N+](=O)[O-] [SR-01000633083] 0.38

* * *

# tested target: GPR139 (Homo sapiens)
# assay: GPR139 Agonist titration / agonist counterscreen assay (calcium detection, HEK-GPR139 cells)
# Format: cell-based
# Parameters: expressed in transfected cells; host or cells: HEK Aequorin cells, Maxcyte transient transfection
# measurement setup: GPR139 Agonist Activity; values printed in E-notation without unit; read-out: EC50
# Method: GPR activity was assessed using a calcium detection assay. […] Negative control samples were treated with DMSO. […] Intracellular calcium was measured using Calcium 5.
# EC50 values compiled below

Guide cases for EC50, answers given:
{"columns": ["compound", "readout type", "result"],
 "data": [
  ["C=C(C)CN(CC)C(=O)CN1C(=O)NC(C)(c2ccc3ccccc3c2)C1=O (centres unmarked)", "EC50", "6.7 nM"],
  ["O=C(CCc1nc2cccnc2n1Cc1cccs1)NCc1ccc2c(c1)OCO2", "EC50", "60.3 nM"],
  ["COc1cc(NC(=O)NCCc2ccc3c(c2)CCCN3C)cc(OC)c1", "EC50", "62.9 nM"],
  ["Cc1ccc(C)c(C(=O)CCC(=O)NNC(=O)CSc2nc3ccccc3o2)c1", "EC50", "> 6.6 nM"],
  ["O=C(COc1ccccc1Cl)NNC(=O)CSc1ccc2ccccc2c1", "EC50", "27.4 nM"]
]}

Please give the measured EC50 for this compound: O=C(NCCc1ccc(Cl)cc1)c1ccc(N2CC3CC(C2)c2cccc(=O)n2C3)c(NS(=O)(=O)c2ccc3c(c2)OCCO3)c1 (centres unmarked) 40.1 nM

Again, but for Cc1ccc2c(c1)CCCN2CC(=O)N(C)c1c(N)n(Cc2ccccc2)c(=O)[nH]c1=O 153 nM

Next record, please: COc1cccc(C(=O)NNC(=O)COc2ccc(C)cc2Br)c1 5.9 nM
